Numbers sourced from ChEMBL document CHEMBL1148358.

Test system: Nucleic Acid
Assay: Apparent binding constant with polynucleotide Poly (dAT)2 complex measured by fluorescence assay
Format: nucleic-acid assay
Conditions: in the assay text read “calf thymus DNA” for “polynucleotide Poly (dAT)2 complex”
readout label: K app (M⁻¹)

Completed entries (count: 9):
molecule | K app, M⁻¹
COc1cc2nc3c(c4c2c(c1OC)N(C(C)=O)CC4)Cc1cc(O)ccc1-3 | 677000
COc1cc2nc3c(c4c2c(c1OC)NCC4)CCc1cc(O)ccc1-3 | 1600
COc1cc2nc3c(c4c2c(c1OC)NCC4)Cc1cc(OCCCN)ccc1-3 | 6.13e+06
COc1cc2nc3c(c4c2c(c1OC)N(C(C)=O)CC4)Cc1cc(OCCCN2CCN(C)CC2)ccc1-3 | 3.58e+06
COc1cc2nc3c(c4c2c(c1OC)NCC4)Cc1ccccc1-3 | 3100
COc1cc2nc3c(c4c2c(c1OC)N(C(=O)CN1CCN(C)CC1)CC4)Cc1cc(OCCCN2CCN(C)CC2)ccc1-3 | 3.04e+06
COc1cc2nc3c(c4c2c(c1OC)NCC4)Cc1cc(OCCN)ccc1-3 | 5.14e+06
COc1ccc2c(c1)Cc1c-2nc2cc(OC)c(OC)c3c2c1CCN3 | 1700
COc1cc2nc3c(c4c2c(c1OC)NCC4)Cc1cc(OCCCN2CCN(C)CC2)ccc1-3 | 301000

A = COc1cc2nc3c(c4c2c(c1OC)N(C(C)=O)CC4)Cc1cc(OCCN)ccc1-3
B = COc1cc2nc3c(c4c2c(c1OC)N(C(=O)CN1CCN(C)CC1)CC4)Cc1cc(OCCN)ccc1-3
Task: // pick larger K app from pair: A vs B Answer by quoting the chosen item's label.
Output: A
(A: 990000 M⁻¹, B: 503000 M⁻¹)

---

Tested on: Nucleic Acid
Assay: Relative DNA binding affinity was determined as difference in melting temperature (delta Tm) with the polynucleotide Poly (dAT)2 complex and alone Poly (dAT)2
Assay type: nucleic-acid assay
readout label: ΔTm (°C)

molecule | readout label | scale unit | meas value
COc1cc2nc3c(c4c2c(c1OC)NCC4)Cc1cc(OCCN)ccc1-3 | ΔTm | °C | 14.8
COc1ccc2c(c1)Cc1c-2nc2cc(OC)c(OC)c3c2c1CCN3 | ΔTm | °C | 0

A = COc1cc2nc3c(c4c2c(c1OC)N(C(=O)CN1CCN(C)CC1)CC4)Cc1cc(OCCCN)ccc1-3
B = COc1cc2nc3c(c4c2c(c1OC)NCC4)Cc1cc(OCCCN2CCN(C)CC2)ccc1-3
C = COc1cc2nc3c(c4c2c(c1OC)NCC4)Cc1ccccc1-3
Task: Give the ascending ranking of the items by reported ΔTm. List the labels in the requested order.
Output: C, B, A
(C: 0 °C, B: 10 °C, A: 22.5 °C)

---

Test system: Nucleic Acid
Assay: Relative DNA binding affinity was determined as difference in melting temperature (delta Tm) with the polynucleotide Poly (dAT)2 complex and alone Poly (dAT)2
Format: nucleic-acid assay
readout label: ΔTm (°C)

Check out these entries, answers already filled in.
molecule | ΔTm, °C
COc1cc2nc3c(c4c2c(c1OC)NCC4)Cc1cc(OCCCN)ccc1-3 | 15.8
COc1cc2nc3c(c4c2c(c1OC)N(C(C)=O)CC4)Cc1cc(OCCCN2CCN(C)CC2)ccc1-3 | 3.8
COc1cc2nc3c(c4c2c(c1OC)NCC4)Cc1cc(O)ccc1-3 | 4
COc1cc2nc3c(c4c2c(c1OC)N(C(=O)CN1CCN(C)CC1)CC4)Cc1cc(OCCN)ccc1-3 | 19.6

A = COc1cc2nc3c(c4c2c(c1OC)N(C(C)=O)CC4)Cc1cc(OCCCN)ccc1-3
B = COc1cc2nc3c(c4c2c(c1OC)N(C(=O)CN1CCN(C)CC1)CC4)Cc1cc(OCCCN2CCN(C)CC2)ccc1-3
C = COc1cc2nc3c(c4c2c(c1OC)N(C(C)=O)CC4)Cc1cc(O)ccc1-3
Task: Write the entries in order, lowest recorded ΔTm first. Response field: labels, in requested order.
Output: C, A, B

I = COc1cc2nc3c(c4c2c(c1OC)N(C(C)=O)CC4)Cc1cc(OCCN)ccc1-3
II = COc1cc2nc3c(c4c2c(c1OC)NCC4)CCc1cc(O)ccc1-3
Task: # argmax over ΔTm for candidates I and II Please respond with the label that marks your chosen entry.
Output: I
